assay: amyloid nucleation score (Sup35N fusion, yeast selection) (log enrichment); library NNK1; higher = more nucleation; inactive = no reads after selection;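 further: zero at mode of non-aggregating sequences after 7 days selection at 30°C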
Short version: amyloid nucleation score at least -0.01 is Met, less is Not met.

Could you verify whether the entry "SACFVARSVVCDWGCAGYMF" shows amyloid nucleation score of no less than -0.01? Met

Could you verify whether the entry "NSWSFGPSGTQFGLSLFYGL" shows amyloid nucleation score of no less than -0.01? Not met

Could you verify whether the entry "TTLPREYYHRRVSVG" shows amyloid nucleation score of no less than -0.01? Met

Could you verify whether the entry "QCIPLLAGSYCAQML" shows amyloid nucleation score of no less than -0.01? Met

Could you verify whether the entry "LVFVFWLKVEPPMLSTCMSK" shows amyloid nucleation score of no less than -0.01? Not met

Could you verify whether the entry "GFCFCCRSGYARVIRFEART" shows amyloid nucleation score of no less than -0.01? Not met

Could you verify whether the entry "KAFWSLCYVERGRWYGAVNA" shows amyloid nucleation score of no less than -0.01? Met

Could you verify whether the entry "LCLYGVC" shows amyloid nucleation score of no less than -0.01? Not met

Could you verify whether the entry "NCLCIMSPCLLPCWEWVSYR" shows amyloid nucleation score of no less than -0.01? Met

Could you verify whether the entry "MYRMFRSFKFEWYCELWVLS" shows amyloid nucleation score of no less than -0.01? Not met

Could you verify whether the entry "VVLAMTVRLWC" shows amyloid nucleation score of no less than -0.01? Not met

Could you verify whether the entry "IFFKLVLVWTFLLTYQAYWV" shows amyloid nucleation score of no less than -0.01? Met

Could you verify whether the entry "DCYNLKQWRSCCDLAVASGG" shows amyloid nucleation score of no less than -0.01? Met

Could you verify whether the entry "ATMYICTRHSTAYGVFHSFV" shows amyloid nucleation score of no less than -0.01? Met

Could you verify whether the entry "TVWKSLLHNSAAAGV" shows amyloid nucleation score of no less than -0.01? Met

Could you verify whether the entry "VGLSVRACNFTRVGLMSFRD" shows amyloid nucleation score of no less than -0.01? Met

Could you verify whether the entry "SYTFSVYLVNWDGF" shows amyloid nucleation score of no less than -0.01? Met

Could you verify whether the entry "VVSWDS" shows amyloid nucleation score of no less than -0.01? Not met

Could you verify whether the entry "FRGTVFSW" shows amyloid nucleation score of no less than -0.01? Not met

Could you verify whether the entry "IKIIAFFWLCSYHGWISWKS" shows amyloid nucleation score of no less than -0.01? Not met

Could you verify whether the entry "VVCRVNTSVMGFKSNCRLGV" shows amyloid nucleation score of no less than -0.01? Met

Could you verify whether the entry "LSLTRAMGIYFRWVLSRSFG" shows amyloid nucleation score of no less than -0.01? Not met

Could you verify whether the entry "LLDRLRRTGLRRCYVSGEFP" shows amyloid nucleation score of no less than -0.01? Met

Could you verify whether the entry "VFQVTWGWSCMREVELSSGT" shows amyloid nucleation score of no less than -0.01? Met

Could you verify whether the entry "FIQNKVLVFQSNSTNDLLFP" shows amyloid nucleation score of no less than -0.01? Met

Could you verify whether the entry "VVLMLRDVEEFRQ" shows amyloid nucleation score of no less than -0.01? Not met

Could you verify whether the entry "LWHAYAKSGYPFGSMVGVHA" shows amyloid nucleation score of no less than -0.01? Met

Could you verify whether the entry "SGMCTYL" shows amyloid nucleation score of no less than -0.01? Met

Could you verify whether the entry "YVGIPQCGDLKRRPLA" shows amyloid nucleation score of no less than -0.01? Met

Could you verify whether the entry "FMSYFVPSQQYLTASSRQKT" shows amyloid nucleation score of no less than -0.01? Not met

Could you verify whether the entry "GGIYANYNFGYLARTESGLG" shows amyloid nucleation score of no less than -0.01? Met

Could you verify whether the entry "TLDFMLIKLSERLHLRC" shows amyloid nucleation score of no less than -0.01? Met

Could you verify whether the entry "GKEPVACRIPNKA" shows amyloid nucleation score of no less than -0.01? Met

Every entry's value here was drawn from the supplement of paper PMC12042874.
